# System: 922993-354-T-J3-PDC complex spheroids, viability, % test/control
# protocol.notes: Anticancer human tumor 922993-354-T-J3-PDC patient-derived endometrial carcinoma cell line growth inhibition [CLK]; active = viability on the fitted dose curve at most 10% of control; inactive = the rest
# condition.label: second compound 10 µM; first compound 0.316 µM
Possible outcomes: class 1 (active), class 0 (inactive)

INSERT INTO assay_data (compound, classification) VALUES
  ('Nc1ccccc1NC(=O)c1ccc(CNC(=O)OCc2cccnc2)cc1 + CNC(=O)c1ccc(Nc2nc(OC3CCCC3)c3c(-c4ccc5nc(C)oc5c4)c[nH]c3n2)c(OC)c1', 'class 0'),
  ('C#Cc1c(F)ccc2cc(O)cc(-c3ncc4c(N5CC6CCC(C5)N6)nc(OCC56CCCN5CC(F)C6)nc4c3F)c12 (stereo not given) + CN1CCN(c2cc(C(=O)Nc3cc4cc(-c5cnn(C)c5)ccc4cn3)ccn2)CC1', 'class 1'),
  ('CCN1CCN(Cc2ccc(Nc3ncc(F)c(-c4cc(F)c5nc(C)n(C(C)C)c5c4)n3)nc2)CC1 + CN1CCN(c2cc(C(=O)Nc3cc4cc(-c5cnn(C)c5)ccc4cn3)ccn2)CC1', 'class 1'),
  ('CCCS(=O)(=O)Nc1ccc(F)c(C(=O)c2c[nH]c3ncc(-c4ccc(Cl)cc4)cc23)c1F + CN1CCN(c2cc(C(=O)Nc3cc4cc(-c5cnn(C)c5)ccc4cn3)ccn2)CC1', 'class 1'),
  ('CC(Nc1ccc2c(c1)OCCn1cc(N3C(=O)OCC3C(F)F)nc1-2)C(N)=O (stereo not given) + CN1CCN(c2cc(C(=O)Nc3cc4cc(-c5cnn(C)c5)ccc4cn3)ccn2)CC1', 'class 1');

---

# Tested on: 922993-354-T-J3-PDC complex spheroids, viability, % test/control
# protocol.notes: Anticancer human tumor 922993-354-T-J3-PDC cell line growth inhibition [CLK];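 note: spheroids exposed to the agents for 7 days before readout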
# condition.label: second compound 1 µM; first compound 0.316 µM; stronger effect = lower value
Under this convention, true denotes viability, T/C strictly below 0.8% and false denotes viability, T/C at or above 0.8%.

INSERT INTO measurements (molecule, classification) VALUES
  ('COc1cccc2c1C(=O)c1c(O)c3c(c(O)c1C2=O)CC(O)(C(=O)CO)CC3OC1CC(N)C(O)C(C)O1 (configuration not stated) + CN1CCN(c2cc(C(=O)Nc3cc4cc(-c5cnn(C)c5)ccc4cn3)ccn2)CC1', 'true'),
  ('CC(Nc1ccc2c(c1)OCCn1cc(N3C(=O)OCC3C(F)F)nc1-2)C(N)=O (configuration not stated) + CN1CCN(c2cc(C(=O)Nc3cc4cc(-c5cnn(C)c5)ccc4cn3)ccn2)CC1', 'false'),
  ('CCc1c2c(nc3ccc(O)cc13)-c1cc3c(c(=O)n1C2)COC(=O)[C@]3(O)CC + CNC(=O)c1ccc(Nc2nc(OC3CCCC3)c3c(-c4ccc5nc(C)oc5c4)c[nH]c3n2)c(OC)c1', 'false'),
  ('CCc1c2c(nc3ccc(O)cc13)-c1cc3c(c(=O)n1C2)COC(=O)[C@]3(O)CC + CN1CCN(c2cc(C(=O)Nc3cc4cc(-c5cnn(C)c5)ccc4cn3)ccn2)CC1', 'false'),
  ('CC(CO)NC(=O)c1cc(-c2ccc(Cl)cc2)nn(-c2cnn(C)c2)c1=O (configuration not stated) + CN1CCN(c2cc(C(=O)Nc3cc4cc(-c5cnn(C)c5)ccc4cn3)ccn2)CC1', 'true'),
  ('Nc1ccn(C2OC(CO)C(O)C2(F)F)c(=O)n1 (configuration not stated) + CN1CCN(c2cc(C(=O)Nc3cc4cc(-c5cnn(C)c5)ccc4cn3)ccn2)CC1', 'true'),
  ('CCCS(=O)(=O)Nc1ccc(F)c(C(=O)c2c[nH]c3ncc(-c4ccc(Cl)cc4)cc23)c1F + CNC(=O)c1ccc(Nc2nc(OC3CCCC3)c3c(-c4ccc5nc(C)oc5c4)c[nH]c3n2)c(OC)c1', 'false'),
  ('O=c1[nH]cc(F)c(=O)[nH]1 + CN1CCN(c2cc(C(=O)Nc3cc4cc(-c5cnn(C)c5)ccc4cn3)ccn2)CC1', 'true'),
  ('Nc1ccn(C2OC(CO)C(O)C2(F)F)c(=O)n1 (configuration not stated) + CNC(=O)c1ccc(Nc2nc(OC3CCCC3)c3c(-c4ccc5nc(C)oc5c4)c[nH]c3n2)c(OC)c1', 'false'),
  ('COC1C=CCC(C)C(C)S(=O)(=O)NC(=O)c2ccc3c(c2)N(CC2CCC21)CC1(CCCc2cc(Cl)ccc21)CO3 (configuration not stated) + CNC(=O)c1ccc(Nc2nc(OC3CCCC3)c3c(-c4ccc5nc(C)oc5c4)c[nH]c3n2)c(OC)c1', 'false'),
  ('O=C(c1cc(Cc2n[nH]c(=O)c3ccccc23)ccc1F)N1CCN(C(=O)C2CC2)CC1 + CN1CCN(c2cc(C(=O)Nc3cc4cc(-c5cnn(C)c5)ccc4cn3)ccn2)CC1', 'false');

---

# Tested on: 922993-354-T-J3-PDC complex spheroids, viability, % test/control
# protocol.notes: Anticancer human tumor 922993-354-T-J3-PDC cell line growth inhibition [CLK];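 note: spheroids exposed to the agents for 7 days before readout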
# condition.label: curve of first compound; second compound 0.1 µM
measure.name: IC50 (nM)

INSERT INTO measurements (compound, relation_symbol, value_observed) VALUES
  ('Nc1ccn(C2OC(CO)C(O)C2(F)F)c(=O)n1 (centres undefined) + CN1CCN(c2cc(C(=O)Nc3cc4cc(-c5cnn(C)c5)ccc4cn3)ccn2)CC1', '<', 31.6),
  ('CCc1c2c(nc3ccc(O)cc13)-c1cc3c(c(=O)n1C2)COC(=O)[C@]3(O)CC + CN1CCN(c2cc(C(=O)Nc3cc4cc(-c5cnn(C)c5)ccc4cn3)ccn2)CC1', '=', 15.2),
  ('CCCS(=O)(=O)Nc1ccc(F)c(C(=O)c2c[nH]c3ncc(-c4ccc(Cl)cc4)cc23)c1F + CN1CCN(c2cc(C(=O)Nc3cc4cc(-c5cnn(C)c5)ccc4cn3)ccn2)CC1', '=', 9220),
  ('CC(Nc1ccc2c(c1)OCCn1cc(N3C(=O)OCC3C(F)F)nc1-2)C(N)=O (centres undefined) + CN1CCN(c2cc(C(=O)Nc3cc4cc(-c5cnn(C)c5)ccc4cn3)ccn2)CC1', '=', 1120);

---

# Test system: 922993-354-T-J3-PDC complex spheroids, viability, % test/control
# protocol.notes: Anticancer human tumor 922993-354-T-J3-PDC cell line growth inhibition [CLK]; active = viability on the fitted dose curve at most 10% of control; inactive = the rest;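 note: spheroids exposed to the agents for 7 days before readout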
# condition.label: second compound 3.16 µM; first compound 10 µM
Possible outcomes: active, inactive

INSERT INTO assay_data (molecule, classification) VALUES
  ('COc1cccc2c1C(=O)c1c(O)c3c(c(O)c1C2=O)CC(O)(C(=O)CO)CC3OC1CC(N)C(O)C(C)O1 (configuration not stated) + CNC(=O)c1ccc(Nc2nc(OC3CCCC3)c3c(-c4ccc5nc(C)oc5c4)c[nH]c3n2)c(OC)c1', 'active'),
  ('CC1(C)CCC(CN2CCN(c3ccc(C(=O)NS(=O)(=O)c4ccc(NCC5CCOCC5)c([N+](=O)[O-])c4)c(Oc4cnc5[nH]ccc5c4)c3)CC2)=C(c2ccc(Cl)cc2)C1 + CNC(=O)c1ccc(Nc2nc(OC3CCCC3)c3c(-c4ccc5nc(C)oc5c4)c[nH]c3n2)c(OC)c1', 'inactive');
